system: Glucose transporter (Leishmania mexicana) (UniProt O61059)
assay-text: ST_JUDE_LEISH: Cytotoxicity at 2uM final concentration against transgenic Leishmania Mexicana promastigotes LmGT2 that are glucose transport deficient and complemented with the L. Mexicana glucose transporter 2. Activity is measured by DNA content using SYBR green in vitro
Type: functional
quantity-kind: inhibition (%)
Answers are plain numbers, in %.

- compound: "CC(=O)Nc1[nH]c(-c2ccccc2)nc1C(N)=O"
  system: "Glucose transporter (Leishmania mexicana) (UniProt O61059)"
  inhibition (%): -1.65

Required: inhibition, one value per compound below.
1. CC[C@H](C)CNC(=O)c1ccnc(-c2ccc(CNC3Cc4ccccc4C3)cc2)c1
2. CCCN(CCC)S(=O)(=O)c1ccc(C(=O)Nc2nc3ccc(-c4cc(=O)[nH]c(Nc5ccccc5Cl)n4)cc3[nH]2)cc1
3. NC1=NC2(CCCCC2)N(OCCCCCCN2C(=O)c3ccccc3C2=O)C(N)=N1
4. CCCCCCCNCCNc1cc(C)nc2ccccc12
5. CCCC(C)NC(=O)[C@H](Cc1ccccc1)NC(=O)c1ccc(O)c(-c2ccc(OC)cc2)c1 (stereo not given in full)
6. COc1ccccc1CN1CCC(NC(=O)c2ccc(-c3cccc(C(F)(F)F)c3)s2)CC1
7. CCCCCCCN1CCC(CC(=O)Nc2ccnc3ccc(OC)cc23)CC1
8. Cc1ccc(NC(=O)c2ccc(Cl)cc2)cc1-c1ccc(C(=O)Nc2ccncc2)cc1

### Response
[-0.69, 4.26, 11.2, 2.79, 3.9, -4.28, 6.34, 0.29]

### Prompt State its inhibition for this compound: Cc1cccc2nc(-c3ccc(-c4cccc(NC(=O)c5cnn6cccnc56)c4)cc3)[nH]c12
### Response 8.93

* * *

system: Solute carrier family 2, facilitated glucose transporter member 1 (Homo sapiens) (UniProt P11166)
Sequence (P11166 whole entry): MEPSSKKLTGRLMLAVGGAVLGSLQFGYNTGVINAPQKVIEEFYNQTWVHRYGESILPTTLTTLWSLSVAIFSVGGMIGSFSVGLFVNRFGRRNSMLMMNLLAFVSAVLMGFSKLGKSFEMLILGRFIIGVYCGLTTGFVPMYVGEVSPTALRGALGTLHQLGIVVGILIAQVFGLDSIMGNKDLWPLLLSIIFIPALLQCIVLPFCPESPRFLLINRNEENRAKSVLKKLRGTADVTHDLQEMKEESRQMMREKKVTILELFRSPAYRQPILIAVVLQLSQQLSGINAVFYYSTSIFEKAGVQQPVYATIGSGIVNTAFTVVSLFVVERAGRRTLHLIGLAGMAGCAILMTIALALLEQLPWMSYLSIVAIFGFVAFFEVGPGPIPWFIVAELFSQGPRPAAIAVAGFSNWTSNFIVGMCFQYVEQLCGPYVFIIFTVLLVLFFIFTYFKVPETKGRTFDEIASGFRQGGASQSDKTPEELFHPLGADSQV
assay-text: ST_JUDE_LEISH: Cytotoxicity at 2uM final concentration against transgenic Leishmania Mexicana promastigotes LmGLUT1 that are glucose transport deficient and complemented with the human glucose transporter GLUT1. Activity is measured by DNA content using SYBR green in vitro
Format: functional
quantity-kind: inhibition

# annotated cases, reported inhibition shown
- compound: "Cc1cc(-c2cccc3c(C(=O)N4CCc5cc6nccc(N7CCCN(C)CC7)c6cc54)cccc23)cc(C)n1"
  reported: "-0.39%"
- compound: "Cc1ccc2[nH]ncc2c1N(CC1CCCCC1)c1ccnc(Nc2ccc(OCC(O)CN3CC=CCC3)cc2)n1 (stereo not given)"
  reported: "2.37%"
- compound: "O=C(Nc1ccc(OC2CCN(Cc3ccccc3)CC2)c(Cl)c1)c1cccs1"
  reported: "2.31%"
- compound: "CCCOc1c(CCNCCCCNCCc2ccc3ccccc3c2OCCC)ccc2ccccc12"
  reported: "60.8%"

Then there is this compound:
### Prompt State its inhibition for this compound: O=C(N[C@H]1CCN(Cc2ccc(OC3CCN(Cc4ccccc4)CC3)cc2)C1)c1ccc(Cl)c(Cl)c1
### Response -0.36%

* * *

system: Solute carrier family 2, facilitated glucose transporter member 1 (Homo sapiens) (UniProt P11166)
assay-text: ST_JUDE_LEISH: Cytotoxicity at 2uM final concentration against transgenic Leishmania Mexicana promastigotes LmGLUT1 that are glucose transport deficient and complemented with the human glucose transporter GLUT1. Activity is measured by DNA content using SYBR green in vitro
Type: functional
quantity-kind: inhibition (%)
Answers are plain numbers, in %.

# annotated cases, reported inhibition shown
- molecule: "NC(=O)c1sc(-n2cnc3ccc(C(=O)NCCN4CCOCC4)cc32)cc1OCc1ccccc1C(F)(F)F"
  unit-of-measurement: "%"
  inhibition: 0.72
- molecule: "CC(C)C(C(=O)n1cc2c(ccc3nc(N)nc(N)c32)n1)C(C)C"
  unit-of-measurement: "%"
  inhibition: 8.32
- molecule: "CC(C)[C@H]1CC[C@H](C)C[C@@H]1OC(=O)N[C@@H](Cc1ccc(O)cc1)C(=O)NC1CCN(Cc2ccc(OCCCN(C)C)cc2)C1 (some centres undefined)"
  unit-of-measurement: "%"
  inhibition: 5.09
- molecule: "CN1CCN(c2ccc(-c3nc4ccc(OCc5cc(Cl)cc(Cl)c5)c(C(N)=O)c4[nH]3)cc2)CC1"
  unit-of-measurement: "%"
  inhibition: 1.82
- molecule: "Cc1[nH]c(C)c(-c2ccc(-c3cccc(Cl)c3)nc2)c(=O)c1Cl"
  unit-of-measurement: "%"
  inhibition: 0.79

Required: inhibition, one value per molecule below.
1. CCCNC(=O)C1Cc2c([nH]c3ccc(Br)cc23)C2(CCN(CCc3ccccc3)CC2)N1 (centres undefined)
2. COc1cccc(C2=CC(C)(C)Oc3cc(OCCN(C)C)ccc32)c1
3. NC1CCN(Cc2ccc(-c3cccc(-c4nc5cc(F)ccc5[nH]4)c3)cc2)C1 (centres undefined)
4. Cc1c2ccncc2c(C)c2c1[nH]c1cc(Cc3ccccc3)c(O)cc12

### Response
[-1.4, 0.35, 16.9, 3.52]

* * *

system: Solute carrier family 2, facilitated glucose transporter member 1 (Homo sapiens) (UniProt P11166)
assay-text: ST_JUDE_LEISH: Cytotoxicity at 2uM final concentration against transgenic Leishmania Mexicana promastigotes LmGLUT1 that are glucose transport deficient and complemented with the human glucose transporter GLUT1. Activity is measured by DNA content using SYBR green in vitro
Assay type: functional
quantity-kind: inhibition (%)
One number for each entry, in %.

# annotated cases, reported inhibition shown
- molecule: "O=C(/C=C/c1ccc(Cl)c(Cl)c1)NCCCCCN1CCC(NC(=O)Nc2ccc(F)c(F)c2)CC1"
  inhibition / %: -1.34
- molecule: "Cc1ccc(Cn2c(N3CCC(C(=O)NCc4cccs4)CC3)nc3ccccc32)cc1"
  inhibition / %: 1.76
- molecule: "CN1CCCN(c2ccnc3cc4c(cc23)N(C(=O)c2ccccc2Cl)CC4)CC1"
  inhibition / %: -0.76
- molecule: "CC1(C)CCC(C)(C)c2c1ccc(C1CCN(CCCCNC(=O)c3ccc(-c4ccc(Cl)cc4)cc3)CC1)c2O"
  inhibition / %: 2.14
- molecule: "O=C(NCCCN1CCC(NC(=O)c2ccc(-c3cccnc3)cc2)CC1)c1ccc(Cl)c(Cl)c1"
  inhibition / %: 2.51
- molecule: "O=C(Nc1ccc(Cl)cc1)c1ccc(CN2CCCN(Cc3cccc(Cl)c3)CC2)cc1"
  inhibition / %: -0.65
- molecule: "Cc1ccc(Oc2ccccc2NC(=O)CCc2nc3ccccc3c(=O)[nH]2)cc1"
  inhibition / %: 0.1
- molecule: "NC1CCCN(Cc2cccc(-c3ccc(-c4nc5cc(C(F)(F)F)ccc5[nH]4)cc3)c2)C1 (stereo not drawn)"
  inhibition / %: 2.3
- molecule: "CCc1nc(N)nc(N)c1-c1ccc(F)c(F)c1"
  inhibition / %: 3
- molecule: "O=C(N[C@H](CC1CCCCC1)C(=O)NC1CCCc2ccccc21)c1ccc(O)c(-c2cccc([N+](=O)[O-])c2)c1 (stereo partly drawn)"
  inhibition / %: 1.2

Required: inhibition, one value per molecule below.
1. O=C(Nc1ccsc1)Nc1cccc(-c2cccc(-c3nc4cc(F)ccc4[nH]3)c2)c1
2. Cc1[nH]c(C)c(-c2ccc(Oc3ccc(F)cc3)cc2)c(=O)c1Br

### Response
1: 2.33; 2: 4.89

* * *

Hi there, I'd appreciate the recorded inhibition for every entry that follows.
system: Solute carrier family 2, facilitated glucose transporter member 1 (Homo sapiens)
assay-text: ST_JUDE_LEISH: Cytotoxicity at 2uM final concentration against transgenic Leishmania Mexicana promastigotes LmGLUT1 that are glucose transport deficient and complemented with the human glucose transporter GLUT1. Activity is measured by DNA content using SYBR green in vitro
Format: functional
One number for each entry, in %.

# annotated cases, reported inhibition shown
- compound: "CC(C)C[C@H](NC(=O)c1ccc(OCCN2CCOCC2)cc1)C(=O)N[C@H](/C=N/NC(=O)c1ccccc1)CCc1ccccc1"
  unit-of-measurement: "%"
  inhibition: 3.15
- compound: "Cc1[nH]c(C)c(-c2ccc(OCc3cc(C(F)(F)F)cc(C(F)(F)F)c3)nc2)c(=O)c1Br"
  unit-of-measurement: "%"
  inhibition: 10.1
- compound: "c1ccc2nc(NCCCCCCCCNc3ccc4ccccc4n3)ccc2c1"
  unit-of-measurement: "%"
  inhibition: 5.37
- compound: "COc1ccc(Nc2nccc(N3CCC(NC(=O)Nc4ccc5c(c4)OCO5)C3)n2)cc1 (centres undefined)"
  unit-of-measurement: "%"
  inhibition: 0.18

Required: inhibition, one value per compound below.
1. COC(=O)c1ccc2nc(-c3ccc(/C=C/C(=O)NCc4ccc(Cl)c(Cl)c4)cc3)[nH]c2c1
2. COc1ccc(Cl)cc1N1CCN(CCCNC(=O)c2ccc(-c3nc4cc(Cl)c(C)cc4[nH]3)c(F)c2)CC1
3. COC(=O)c1cc(C(=O)CN(Cc2ccccc2)C(C)C)ccc1O
4. COc1cc(NC(=O)C(c2ccc(Cl)cc2)C(C)C)cc(OC)c1OC (centres undefined)

### Response
1: 3.11; 2: 1.96; 3: 4.78; 4: 2.52

### Prompt Specify the recorded inhibition for COc1cc2c(cc1OC)CC(NCc1ccc(-c3ccc4nc[nH]c4c3)cc1)C2 , system: Solute carrier family 2, facilitated glucose transporter member 1 (Homo sapiens).
### Response 5.26
